experiment: Urinary excretion of flavanol metabolites (0-24 h) after a single serving of soluble cocoa product (HPLC-ESI-QToF-MS); format: in vivo, human; conditions: after CC (19.80 mg flavanols), mean ± SD, n = 13
observable: Excreted in urine, 0–4 h

These recorded examples may help you get a feel for the data.
compound	Excreted in urine, 0–4 h
O=C1CCC(Cc2ccc(O)c(O)c2)O1 (centres unmarked)	<L.Q.
O=C1CCC(Cc2cccc(OC3OC(C(=O)O)C(O)C(O)C3O)c2)O1 (centres unmarked) [PVL-3′glucuronide, 5-Phenyl-γ-valerolactone-3′-glucuronide]	<L.Q.
O=C1CCC(Cc2cccc(OS(=O)(=O)O)c2)O1 (centres unmarked) [PVL-3′-sulfate, 5-Phenyl-γ-valerolactone-3′-sulfate]	<L.Q.
O=C(O)CCc1ccc(O)c(O)c1 [3,4-Dihydroxyphenylpropionic acid]	0.217 ± 0.051 µmol
O=C1CCC(Cc2ccc(O)c(OC3OC(C(=O)O)C(O)C(O)C3O)c2)O1 (centres unmarked) [HPVL-3′-glucuronide]	<L.Q.
O=C1CCC(Cc2ccc(O[C@@H]3O[C@H](C(=O)O)[C@@H](O)[C@H](O)[C@H]3O)c(O)c2)O1 (some centres unmarked) [HPVL-4′-glucuronide]	<L.Q.
O=C(O)Cc1ccc(O)c(O)c1 [3,4-Dihydroxyphenylacetic acid]	0.648 ± 0.505 µmol

Kindly review the next compound as well.
Query string: Field request: Excreted in urine, 0–4 h | item: COc1cc(CC(=O)O)ccc1O [3-Methoxy-4-hydroxyphenylacetic acid]
Result string: 0.099 ± 0.054 µmol

---

experiment: Urinary excretion of flavanol metabolites (0-24 h) after a single serving of soluble cocoa product (HPLC-ESI-QToF-MS); type: in vivo, human; settings: after CC-PP (68.25 mg flavanols), 24 h urine, mean ± SD, n = 13
Hi there, I'd appreciate the recorded Excreted in urine, Total for every entry that follows.
Expressed in µmol, but write only the number.

Query string: Field request: Excreted in urine, Total | item: O=C(O)c1ccc(O)c(O)c1 [Protocatechuic acid, 3,4-Dihydroxybenzoic acid]
Result string: 0.528

Query string: Field request: Excreted in urine, Total | item: O=C1CCC(Cc2cccc(OC3OC(C(=O)O)C(O)C(O)C3O)c2)O1 (stereo not shown) [PVL-3′glucuronide, 5-Phenyl-γ-valerolactone-3′-glucuronide]
Result string: 1.316

Query string: Field request: Excreted in urine, Total | item: COc1cc([C@H]2Oc3cc(OS(=O)(=O)O)cc(O)c3C[C@H]2O)ccc1O (single isomer, unassigned) [Epicatechin-methoxy-sulfate (isomer 2), Epicatechin-methoxy-sulfate]
Result string: 1.200

Query string: Field request: Excreted in urine, Total | item: O=C1CCC(Cc2ccc(O)c(O)c2)O1 (stereo not shown) [DHPVL]
Result string: 1.084

Query string: Field request: Excreted in urine, Total | item: O=C1CCC(Cc2cccc(O)c2)O1 (stereo not shown) [HPVL, 5-(3′-Hydroxyphenyl)-γ-valerolactone]
Result string: 0.104

Query string: Field request: Excreted in urine, Total | item: COc1cc([C@H]2Oc3cc(O)cc(OS(=O)(=O)O)c3C[C@H]2O)ccc1O (single isomer, unassigned) [Epicatechin-methoxy-sulfate (isomer 1), Epicatechin-methoxy-sulfate]
Result string: 12.481

Query string: Field request: Excreted in urine, Total | item: O=S(=O)(O)Oc1cc([C@H]2Oc3cc(O)cc(O)c3C[C@H]2O)ccc1O [Epicatechin-3′-sulfate]
Result string: 7.357

Cited source: paper PMC6683251
